Molecular target: NADPH oxidase 5 (Homo sapiens)
Experiment: NOX5-dependent H2O2 signal modulators, primary screen, NOX inhibitor project, cell-based, HEK293-NOX5, Amplex Red fluorescence (AID 1161)
Details: HEK293-NOX5, ionomycin, 45 min, higher = more signal

compound	z-score
NCCCCCNC(=O)[C@@H]1C[C@@H]2C(=O)N3CCC[C@H]3C(=O)N2[C@@H]1c1cccc(OCCO)c1	0.961
CCCNC(=O)OC[C@H]1O[C@H](CCON=CC[C@@H]2C=C[C@H](OC(C)=O)[C@@H](COC(C)=O)O2)C=C[C@@H]1Oc1ccc(OC)cc1	-1.07
COCCNC(=O)OCC1CCCC2(CC(OC(=O)NCCc3ccc(F)cc3)CC(CCC(=O)N[C@@H](C)C(=O)OC)O2)O1 (stereo not given in full)	0.232
CC(C)=C1C(=O)C(c2ccccc2)=C2CN3C(=O)N(CCc4ccccc4)C(=O)[C@]3(Cc3ccc(F)cc3)[C@H]21	-1.11
O=C1CCCC2OC12C(O)CCc1ccccc1 (stereo not given)	0.0429
C=C(COC)/C(=C/C[C@H](OC(=O)c1ccncc1)c1ccc(CO)o1)c1cc(C(=O)OC)ccc1OC	-0.413
CCOC(=O)NN=C1C[C@@H](O)[C@@H](O)[C@@H]2[C@@H]3C(=O)N(C4CCCCC4)C(=O)[C@@H]3CC[C@@H]12	-0.121
COCCOC(=O)N1C(=O)[C@@]2(c3cc(C#Cc4ccc(OC)cc4)ccc31)[C@H](C(=O)N1CCN(c3ncccn3)CC1)[C@H]1C(=O)O[C@H](c3ccccc3)[C@H](c3ccccc3)N1[C@@H]2c1ccc(OCCO)cc1	-0.0992
COC(=O)[C@@H]1N=C(c2ccc(OCCCO)cc2)O[C@@H]1c1ccccc1N=[N+]=[N-]	-2.26
COCCCNC(=O)[C@@]1(Sc2ccc(C)cc2)CC(=O)N(Cc2ccccc2)[C@@H]1c1ccc(CO)cc1I	1.26
COc1ccc(OC[C@H]2Cc3c(-c4ccccc4)nc4c(c3CO2)CN(CCOc2ccccc2)CC4)cc1	-1.04
CCc1cc2c(nc1CC)CCN(CCC(C)=NOC(C)CN1CCCc3nc(C)c(C)cc31)C2 (stereo not given)	-1.86
C=C(/C(=C/C[C@@H](OC(=O)c1ccncc1)c1ccc(OCCO)cc1)c1cnc2ccccc2c1)C(C)C	-3.24
COCCOC(=O)N1C(=O)[C@@]2(c3cc(C#CCNC(N)=O)ccc31)[C@H](c1ccc(O)cc1)N1[C@H](c3ccccc3)[C@H](c3ccccc3)OC(=O)[C@H]1[C@@H]2C(=O)N1CCCCCCC1	1.48
CC(C)(C)OC(=O)CC[C@]1(C(N)=O)COC(c2ccc(OCCCO)cc2)=N1	0.612

###

Test system: Noggin (protein binding on small-molecule microarray)
Assay: Noggin binders on small-molecule microarray, primary screen, biochemical, 635/667 nm fluorescence (AID 1095);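 also: score merges 667 nm feature fluorescence with signal to noise over triplicate slides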
Details: 635 nm fluorescence, higher = more signal
readout_type: composite z-score

In [3]: df
Out[3]:
                                   compound       readout_type  observed
0  CO[C@H]1COC(=O)[C@H](C)NC(=O)[C@@H](C)COC(=O)CC=C[C@@H]1C  composite z-score       0.3
1  C[C@H](c1ccccc1)N1C(=O)[C@H]2[C@H]3[C@H](O)[C@H](O)CC(=O)[C@@H]3CC[C@H]2C1=O  composite z-score     0.245
2  O=C1[C@H]2[C@H]3[C@H](O)[C@H](O)CC(=NOC[C@@H](O)COCc4ccco4)[C@@H]3CC[C@H]2C(=O)N1c1ccc(F)cc1F  composite z-score      1.01
3  COc1ccc(-c2nc3c(c4c2C[C@H](C)OC4)CN(CCC(C)C)CC3)cc1  composite z-score     0.501
4  CCCCCN1CC=CC23O[C@@H]4C=CCOC(=O)[C@@H]4[C@H]2C(=O)N(CCCCCCO)[C@@H]3C1=O (some centres not stated)  composite z-score     -1.38
5  C[N+](C)(C)CCCCCCNC(=O)[C@@H]1C[C@@H]2C(=O)N3CCC[C@H]3C(=O)N2[C@@H]1c1cccc(OCCO)c1  composite z-score      1.88
6  C=CC[C@@H]1C=C[C@H](ON=Cc2ccc(C(=O)N3[C@H](c4ccc(C)cc4)[C@@H](C)CC[C@H]3C(=O)OC)cc2)[C@@H](CO)O1  composite z-score     0.709
